# PROCEDURE TEXT: Volume of distribution at steady state in cynomolgus monkey at 0.5 mg/kg, iv
# Format: ADME, organism-based, Macaca fascicularis
# Parameters: dose 0.5 mg/kg, route intravenous
# MEASUREMENT PARAMETERS: in vivo, read-out: Vdss
ASSAY METRIC: Vd (L/kg)
Please state the figure in L/kg; there is no need to write the unit.

Given item Cc1cc2c(c(Oc3cc(NS(=O)(=O)c4ccc(Cl)cc4)ccc3F)n1)C(=O)N(C(C)C)C2=O , the value recorded as its Vd is 1.1

###

# TARGET UNDER TEST: Glucose-dependent insulinotropic receptor (Homo sapiens) (UniProt Q8TDV5)
# Sequence (whole entry): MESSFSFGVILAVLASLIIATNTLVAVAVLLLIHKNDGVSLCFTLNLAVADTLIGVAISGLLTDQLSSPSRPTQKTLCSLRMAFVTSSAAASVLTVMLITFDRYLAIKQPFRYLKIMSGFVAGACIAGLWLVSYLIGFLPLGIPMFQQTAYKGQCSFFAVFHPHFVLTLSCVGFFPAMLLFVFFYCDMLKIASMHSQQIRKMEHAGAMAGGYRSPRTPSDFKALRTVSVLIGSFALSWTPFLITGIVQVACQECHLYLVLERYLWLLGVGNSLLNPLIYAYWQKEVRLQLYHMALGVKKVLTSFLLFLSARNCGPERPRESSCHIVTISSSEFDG
# PROCEDURE TEXT: Agonist activity at human GPR119 expressed in HEK293 cells assessed as cAMP accumulation after 30 mins relative to isopropyl 4-(1-(4-(methylsulfonyl)phenyl)-1H-pyrazolo[3,4-d]pyrimidin-4-yloxy)piperidine-1-carboxylate
# Format: functional, cell-based
ASSAY METRIC: Efficacy (%)
Numeric only. Scale: %

The cases that follow already have their Efficacy on record.
COc1cc2c(c(Oc3cccc(NS(=O)(=O)c4ccc(Cl)cc4)c3)n1)C(=O)N(C1CC1)C2=O    97
Cc1cc2c(c(Oc3cccc(NS(=O)(=O)c4ccc(Cl)cc4)c3)n1)C(=O)N(C1CC1)C2=O    111
Cc1cc2c(c(Oc3cccc(NS(=O)(=O)c4ccc(Cl)cc4)c3)n1)C(=O)NC2=O    109

Turning now to a further compound:
What the record says about Cc1cc2c(c(Oc3cccc(NS(=O)(=O)c4ccc(Cl)cc4)c3)n1)C(=O)N(C)C2=O : Efficacy is 122

###

# PROCEDURE TEXT: Half life in rat at 0.5 mg/kg, iv
# Assay type: ADME, organism-based
# Design: dose 0.5 mg/kg, route intravenous
# MEASUREMENT PARAMETERS: in vivo
ASSAY METRIC: half-life
Please format your answer as a value with the unit trailing.

// half-life lookup, compound = Cc1cc2c(c(Oc3cc(NS(=O)(=O)c4ccc(Cl)cc4)ccc3F)n1)C(=O)N(C(C)C)C2=O , result: 1.5 h

###

# PROCEDURE TEXT: Metabolic stability in rat liver microsomes assessed as compound remaining at 1 uM after 30 mins
# Assay type: ADME
# MEASUREMENT PARAMETERS: read-out: Stability
ASSAY METRIC: remaining at 0.5 h, 1 µM (%)
Express the result in % but write the number alone.

Summary for this compound, Cc1cc2c(c(Oc3cccc(NS(=O)(=O)c4ccc(Cl)cc4)c3)n1)C(=O)N(C(C)C)C2=O : remaining at 0.5 h, 1 µM is 15
